assay: Toxicity liver stage against HepG2, at 10uM; type: cell-based; design: test concentration 10 uM, cell line HepG2-A16-CD81EGFP; details: human, HepG2-A16-CD81EGFP cells; read-out: INHIBITION
measure_name: cytotoxicity at 10 µM (%)
Provide only the numeric value, understood in %.

[[record]]
molecule = "Cc1ccc(C(=O)NS(=O)(=O)c2cc(Br)ccc2C)c(=O)[nH]1"
measure_name = "cytotoxicity at 10 µM"
unit = "%"
readout_number = -2.27

[[record]]
molecule = "CO[C@@H]1CCN(Cc2ccc(C)o2)[C@H]1Cc1ccccc1"
measure_name = "cytotoxicity at 10 µM"
unit = "%"
readout_number = -3.15

[[record]]
molecule = "O=C(CCNS(=O)(=O)c1ccc(F)c(F)c1)NCc1ccoc1"
measure_name = "cytotoxicity at 10 µM"
unit = "%"
readout_number = 11.2


Query: Param item = CC(Cn1cncn1)NCCN1CCc2ccccc2C1 (stereo unspecified) ; retrieve measured cytotoxicity at 10 µM.
Reply: -1.27

Query: Do the same for CCCOc1cc(C)ccc1NC(=O)N(C)Cc1cnn(C)c1 please
Reply: -11.1

Query: Do the same for CCOC(=O)CN1CC(c2nc(-c3ccsc3)no2)C1 please
Reply: -12.3

----------
experiment: Toxicity liver stage against HepG2, at 10uM; assay type: cell-based; design: test concentration 10 uM, cell line HepG2-A16-CD81EGFP; settings: human, HepG2-A16-CD81EGFP cells; read-out: INHIBITION
Catalogue of cytotoxicity at 10 µM values
Please answer in the form of a number followed by its unit of measurement.

Query: Param item = CC(CCN1CCCC1=O)NCc1cnc(C2CCC2)s1 (stereo unspecified) ; retrieve measured cytotoxicity at 10 µM.
Reply: -0.743%

Query: Do the same for Cc1ccc(OCc2occc2C(=O)N2CC[C@H](CO)[C@@H](O)C2)cc1 please
Reply: 14.3%

Query: Do the same for Cc1nc(C)n(CC2CN(Cc3cccc4c3OCCO4)CCO2)n1 (stereo unspecified) please
Reply: -1.99%

Query: Do the same for CC(C)NC1CCc2c(ccc(=O)n2CC2CC2)C1 (stereo unspecified) please
Reply: -76.5%

Query: Do the same for CC(NC(=O)N1CCC1)c1ccc(S(N)(=O)=O)cc1 (stereo unspecified) please
Reply: -8.64%

Query: Do the same for Cc1nc(C)n(CC(C)C(=O)N2CCCN(C3CCCC3)CC2)n1 (stereo unspecified) please
Reply: -0.103%

----------
assay: Toxicity liver stage against HepG2, at 10uM; type: cell-based; set-up: test concentration 10 uM, cell line HepG2-A16-CD81EGFP; settings: human, HepG2-A16-CD81EGFP cells; read-out: INHIBITION
measure_name: cytotoxicity at 10 µM (%)
Provide only the numeric value, understood in %.

Query: Param item = CCc1noc(C(C)N2CCN(Cc3cnc(C)cn3)CC2)n1 (stereo not given) ; retrieve measured cytotoxicity at 10 µM.
Reply: -8.54

Query: Do the same for c1ccc(CN2CCN(Cc3cnc(C4CCCCO4)nc3)CC2)cc1 (stereo not given) please
Reply: -1.71

Query: Do the same for COc1ccc(CN2C[C@@H]3CN(S(=O)(=O)C4CC4)C[C@@H]3C2=O)cc1 please
Reply: -4.01

Query: Do the same for CN1Cc2c(C(=O)NCC3CCCO3)ncn2-c2ccccc2S1(=O)=O (stereo not given) please
Reply: -141

Query: Do the same for Cc1oncc1C(=O)N1CCC2(CC1)CN(S(C)(=O)=O)c1ccccc12 please
Reply: 1.47

----------
experiment: Toxicity liver stage against HepG2, at 10uM; assay type: cell-based; set-up: test concentration 10 uM, cell line HepG2-A16-CD81EGFP; details: human, HepG2-A16-CD81EGFP cells; read-out: INHIBITION
measure_name: cytotoxicity at 10 µM

For orientation, consider the following solved cases.
[[record]]
molecule = "O=c1c2cccnc2cnn1CC(O)c1cccc(Cl)c1 (stereo unspecified)"
result = "-10.2%"

[[record]]
molecule = "Cn1cc(CN2C[C@@H](NC(=O)c3cscn3)[C@H]3OCCC[C@H]32)cn1"
result = "-11.7%"

[[record]]
molecule = "Cc1nccn1-c1cc(CNC(=O)COCC2CC2)ccn1"
result = "2.37%"

[[record]]
molecule = "CCC1COCCN1C(=O)NCc1cccc(-c2cnn(C)c2)c1 (stereo unspecified)"
result = "-1.62%"

[[record]]
molecule = "CC(=O)N1CCc2c(nc(N(C)C)nc2NCc2cccs2)C1"
result = "-50.6%"


Okay, now this molecule:
Query: Param item = CN(C)C1CCN(C(=O)c2ccc(Cn3ccccc3=O)o2)CC1 ; retrieve measured cytotoxicity at 10 µM.
Reply: -2.11%

----------
assay: Toxicity liver stage against HepG2, at 10uM; type: cell-based; parameters: test concentration 10 uM, cell line HepG2-A16-CD81EGFP; settings: human, HepG2-A16-CD81EGFP cells; read-out: INHIBITION
measure_name: cytotoxicity at 10 µM (%)
Provide only the numeric value, understood in %.

For orientation, consider the following solved cases.
[[record]]
molecule = "O=C(NC1CC1)c1cccc(Oc2ccc3nncn3n2)c1"
measure_name = "cytotoxicity at 10 µM"
readout_number = -5.29

[[record]]
molecule = "CN1CCN(Cn2nc(-c3cccs3)ccc2=O)CC1"
measure_name = "cytotoxicity at 10 µM"
readout_number = 2.63

[[record]]
molecule = "CN(C)C(=O)c1nn(C)c2c1CN(Cc1ccc(F)cc1)C2"
measure_name = "cytotoxicity at 10 µM"
readout_number = -9.88


Query: Param item = CNC(=O)c1ccc(NC(=O)NC(C)c2cc(C)oc2C)c(C)c1 (stereo unspecified) ; retrieve measured cytotoxicity at 10 µM.
Reply: -10.6

Query: Do the same for CC(C)(N)c1nc(C(F)F)cc(=O)[nH]1 please
Reply: 11.9

Query: Do the same for O=C(c1cscn1)N1CCC2(COc3ncccc3S(=O)(=O)N2)C1 (stereo unspecified) please
Reply: 7.22

----------
experiment: Toxicity liver stage against HepG2, at 10uM; assay type: cell-based; parameters: test concentration 10 uM, cell line HepG2-A16-CD81EGFP; details: human, HepG2-A16-CD81EGFP cells; read-out: INHIBITION
Label key: Yes means cytotoxicity at 10 µM under -10%; No means cytotoxicity at 10 µM of -10% or more.

Below, 4 compounds whose answers are already recorded.
[[record]]
compound = "CC(=O)N1CCN(Cc2nnc(C(C)(C)C)o2)CC1"
class_assignment = "No"

[[record]]
compound = "Cc1nccc(CNc2cc(N3CCCC3CO)ncn2)n1 (stereo unspecified)"
class_assignment = "Yes"

[[record]]
compound = "Fc1cnc(N2CCCn3c(CN4CCOCC4)nnc3C2)nc1"
class_assignment = "Yes"

[[record]]
compound = "COCC[C@]1(O)CCN(C(=O)C2CCN(C3CCCC3)CC2)C[C@H]1C"
class_assignment = "No"


Query: Say whether its cytotoxicity at 10 µM is strictly beneath -10%. Entry: Cc1csc(CN(C)c2cc(C)nc3c(C)c(C)nn23)n1
Reply: No

----------
test: Toxicity liver stage against HepG2, at 10uM; format: cell-based; parameters: test concentration 10 uM, cell line HepG2-A16-CD81EGFP; settings: human, HepG2-A16-CD81EGFP cells; read-out: INHIBITION
Catalogue of cytotoxicity at 10 µM values
Provide only the numeric value, understood in %.

For orientation, consider the following solved cases.
[[record]]
molecule = "CC(C)SCC(=O)N1Cc2cnc(-c3ccccc3)nc2C1"
readout_number = 1.2

[[record]]
molecule = "Cc1cncc(C(=O)N[C@@H]2CC[C@@H](N3CCOCC3)[C@@H]2O)c1"
readout_number = 0.331

[[record]]
molecule = "Cc1cccc(-c2ccc(C(=O)N3CCN(C(C)C)CC3)c(=O)[nH]2)c1"
readout_number = -3.27

[[record]]
molecule = "CC(=O)Nc1ccc(CN2CCc3[nH]cnc3C2c2nccn2C)cc1 (stereo not drawn)"
readout_number = -182

[[record]]
molecule = "CCCc1noc(C2CCCCN2C(=O)CCc2cnn(C)c2)n1 (stereo not drawn)"
readout_number = -1.89

[[record]]
molecule = "CN(C)C(=O)CCS(=O)(=O)Cc1ccn(-c2cccc(F)c2)n1"
readout_number = -5.71


Okay, now this molecule:
Query: Param item = Cc1cc(NC(=O)c2nc(N3CCCC3)ncc2Cl)ccc1Br ; retrieve measured cytotoxicity at 10 µM.
Reply: -7.2

----------
Catalogue of cytotoxicity at 10 µM values
experiment: Toxicity liver stage against HepG2, at 10uM; type: cell-based; parameters: test concentration 10 uM, cell line HepG2-A16-CD81EGFP; settings: human, HepG2-A16-CD81EGFP cells; read-out: INHIBITION
Provide only the numeric value, understood in %.

For orientation, consider the following solved cases.
[[record]]
molecule = "O=C(NC1=NCCCN1c1ccc(Cl)cc1)c1cccc(Cl)c1"
readout_number = -17.5

[[record]]
molecule = "Cc1cccc(CN2C(=O)C[C@H]3[C@@H]2CCN3Cc2ccccn2)n1"
readout_number = 6.97

[[record]]
molecule = "c1ccc2sc(N3CCCC(Cn4cncn4)C3)nc2c1 (configuration not stated)"
readout_number = -40.1


Query: Param item = COc1ccccc1N1CC(NC(=O)c2cc(C(C)C)nn2C)CC1=O (configuration not stated) ; retrieve measured cytotoxicity at 10 µM.
Reply: 52.4

Query: Do the same for O=C(NCCn1ccnc1-c1cc2n(n1)CCNC2)c1ccncc1 please
Reply: -2.66
